Provide the recorded pKd for the entries that follow.
Biological target: hPcf11 (in CF II);hClp1 (human;human, UniProt O94913;Q92989 1-1555;1-425, |)
Sequence (O94913 whole entry, chain 1 of 2): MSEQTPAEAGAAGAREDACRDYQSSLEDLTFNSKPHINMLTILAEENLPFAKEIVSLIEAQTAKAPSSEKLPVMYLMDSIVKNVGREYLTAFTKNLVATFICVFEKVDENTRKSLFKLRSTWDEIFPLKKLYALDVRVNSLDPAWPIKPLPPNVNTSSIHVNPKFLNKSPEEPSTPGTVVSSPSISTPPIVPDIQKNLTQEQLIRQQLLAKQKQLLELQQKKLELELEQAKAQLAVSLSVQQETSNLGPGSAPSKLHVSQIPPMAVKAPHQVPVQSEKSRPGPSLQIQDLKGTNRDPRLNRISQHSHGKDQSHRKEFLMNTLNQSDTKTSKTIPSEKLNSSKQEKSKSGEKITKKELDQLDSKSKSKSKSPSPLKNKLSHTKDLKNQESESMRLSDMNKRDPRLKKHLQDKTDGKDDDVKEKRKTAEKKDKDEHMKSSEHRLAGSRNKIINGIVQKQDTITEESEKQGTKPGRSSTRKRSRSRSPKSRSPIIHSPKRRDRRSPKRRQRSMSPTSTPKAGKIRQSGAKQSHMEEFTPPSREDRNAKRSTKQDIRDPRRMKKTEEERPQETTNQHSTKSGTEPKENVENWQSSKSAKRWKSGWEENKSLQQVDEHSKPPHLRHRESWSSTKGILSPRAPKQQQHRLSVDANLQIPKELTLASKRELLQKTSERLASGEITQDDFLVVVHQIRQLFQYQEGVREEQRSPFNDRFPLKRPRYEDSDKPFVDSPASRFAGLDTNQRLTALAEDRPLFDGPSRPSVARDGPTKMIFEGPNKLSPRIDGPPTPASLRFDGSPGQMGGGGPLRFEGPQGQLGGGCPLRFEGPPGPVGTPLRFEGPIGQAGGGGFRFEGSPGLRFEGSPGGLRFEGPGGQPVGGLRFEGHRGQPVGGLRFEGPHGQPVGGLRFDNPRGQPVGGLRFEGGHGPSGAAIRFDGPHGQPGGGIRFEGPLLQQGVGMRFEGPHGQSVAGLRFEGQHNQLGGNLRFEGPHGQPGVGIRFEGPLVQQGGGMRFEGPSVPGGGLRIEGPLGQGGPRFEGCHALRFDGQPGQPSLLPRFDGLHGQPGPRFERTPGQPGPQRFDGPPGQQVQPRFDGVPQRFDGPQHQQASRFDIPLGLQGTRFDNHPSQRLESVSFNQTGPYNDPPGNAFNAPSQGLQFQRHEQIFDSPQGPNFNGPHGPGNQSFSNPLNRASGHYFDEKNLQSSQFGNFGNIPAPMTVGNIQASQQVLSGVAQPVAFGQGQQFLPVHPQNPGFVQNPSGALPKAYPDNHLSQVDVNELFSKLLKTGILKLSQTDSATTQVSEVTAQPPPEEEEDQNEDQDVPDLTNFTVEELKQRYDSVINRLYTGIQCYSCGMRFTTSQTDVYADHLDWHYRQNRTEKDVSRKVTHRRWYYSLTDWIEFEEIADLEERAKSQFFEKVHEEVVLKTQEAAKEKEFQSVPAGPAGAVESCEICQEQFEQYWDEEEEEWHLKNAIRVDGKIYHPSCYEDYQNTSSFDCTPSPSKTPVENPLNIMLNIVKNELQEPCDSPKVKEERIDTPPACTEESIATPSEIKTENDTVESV
Sequence (Q92989 whole entry, chain 2 of 2): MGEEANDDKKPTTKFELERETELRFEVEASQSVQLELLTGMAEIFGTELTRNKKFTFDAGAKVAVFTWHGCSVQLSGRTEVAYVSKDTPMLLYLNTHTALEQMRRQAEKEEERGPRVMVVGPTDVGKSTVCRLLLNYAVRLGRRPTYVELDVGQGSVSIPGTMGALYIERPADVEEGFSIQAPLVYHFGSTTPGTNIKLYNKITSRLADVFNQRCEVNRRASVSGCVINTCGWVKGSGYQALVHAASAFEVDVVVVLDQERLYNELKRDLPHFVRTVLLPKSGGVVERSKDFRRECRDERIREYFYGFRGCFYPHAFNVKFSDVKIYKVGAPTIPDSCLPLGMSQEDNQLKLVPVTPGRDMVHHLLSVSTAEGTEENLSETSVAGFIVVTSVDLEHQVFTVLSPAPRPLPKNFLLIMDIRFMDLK
Experiment: EMSA
Answers are plain numbers, as −log10 of the molar value.

Some solved cases for reference:
Per the record, GGGGGAGGUGUGGGAGG (ssRNA) [208-224] has pKd of 8.28

// GGUUCAGGGGGAGGUGUGGGAGG (ssRNA) [202-224] : pKd value = 9.10

The reported value for GGGUUUAAGUGGGUCACG (ssRNA) [BS2-d1] in terms of pKd is 7.89

Measured pKd of CCCUUUAAGUGGGUCACG (ssRNA) [BS2-d2] : 7.27

pKd recorded for this binder, GGGGGGGGGGG (ssRNA) [G11] , is 7.39

For this binder ( GGGGGGGGGGGG (ssRNA) [G12] ), measured pKd is 7.68

Others:
Noted for GGGUUUAAGUGGGUCACGUUUAAAC (ssRNA) [BS2] : its pKd reads 7.96
